Below, each entry is listed alongside its reported koff.
# test-system: T1, recombinant human cardiac troponin T (human, UniProt P45379 2-298)
# T1 construct: In the ECL assay the cTnT came from the Troponin T hs CalSet calibrator; also called cTnT; TnT
# protocol-summary: SPR (Biacore T200, 37 C), Fab captured, cTnT analyte
quantity-kind: koff (s⁻¹)

>>> val("anti-cTnT Fab mutant 19 (Y104F) (Fab, V domains shown, also called combination 19) VH: EVQLQQSGPELVKPGASVKMSCKASGYTFTDYYMKWVKQSHGKSLEWIGDINPNNGETFYNQKFKDKATLTVDKSSSTAYMQLNSLTSEDSAVYYCATRVFDFWGQGTTLTVSS VL: DIVLTQSPASLAVSLGQRATISCKASQSVDYDGTSYMNWFQQKAGQPPKRLIYAASNLESGIPARFSGRGSGTDFALNIHPVEEEDAATYYCQQSNEDPYTFGGGTKLEIK")
0.0014
>>> val("anti-cTnT Fab mutant 17 (F60W) (Fab, V domains shown, also called combination 17) VH: EVQLQQSGPELVKPGASVKMSCKASGYTFTDYYMKWVKQSHGKSLEWIGDINPNNGETWYNQKFKDKATLTVDKSSSTAYMQLNSLTSEDSAVYYCATRVFDYWGQGTTLTVSS VL: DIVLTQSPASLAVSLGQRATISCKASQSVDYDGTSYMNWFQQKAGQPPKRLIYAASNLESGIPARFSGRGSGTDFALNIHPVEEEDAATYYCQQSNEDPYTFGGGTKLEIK")
0.0016
>>> val("anti-cTnT Fab mutant 12 (Y34I, F60W, Y104F) (Fab, V domains shown, also called combination 12; combination \"12\") VH: EVQLQQSGPELVKPGASVKMSCKASGYTFTDYIMKWVKQSHGKSLEWIGDINPNNGETWYNQKFKDKATLTVDKSSSTAYMQLNSLTSEDSAVYYCATRVFDFWGQGTTLTVSS VL: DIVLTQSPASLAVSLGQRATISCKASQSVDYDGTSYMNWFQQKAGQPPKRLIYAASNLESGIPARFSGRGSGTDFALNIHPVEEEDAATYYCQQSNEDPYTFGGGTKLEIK")
0.00037
>>> val("anti-cTnT Fab mutant 7 (Y34F, Y104F) (Fab, V domains shown, also called combination 7) VH: EVQLQQSGPELVKPGASVKMSCKASGYTFTDYFMKWVKQSHGKSLEWIGDINPNNGETFYNQKFKDKATLTVDKSSSTAYMQLNSLTSEDSAVYYCATRVFDFWGQGTTLTVSS VL: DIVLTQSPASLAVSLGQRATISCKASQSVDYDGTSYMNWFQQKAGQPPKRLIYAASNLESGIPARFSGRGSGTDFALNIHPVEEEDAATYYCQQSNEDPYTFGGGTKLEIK")
0.0011
>>> val("anti-cTnT Fab mutant 11 (Y34I, F60W, V101Y) (Fab, V domains shown, also called combination 11) VH: EVQLQQSGPELVKPGASVKMSCKASGYTFTDYIMKWVKQSHGKSLEWIGDINPNNGETWYNQKFKDKATLTVDKSSSTAYMQLNSLTSEDSAVYYCATRYFDYWGQGTTLTVSS VL: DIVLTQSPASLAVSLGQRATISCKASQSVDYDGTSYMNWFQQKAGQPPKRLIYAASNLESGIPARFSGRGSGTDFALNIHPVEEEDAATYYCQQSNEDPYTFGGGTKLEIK")
0.0022
>>> val("parental anti-cTnT Fab fragment (wildtype TnT M-7 Fab, from antibody 12.1A11.11-7) (Fab, V domains shown, also called wildtype Fab; TnT M-7 (wildtype) Fab) VH: EVQLQQSGPELVKPGASVKMSCKASGYTFTDYYMKWVKQSHGKSLEWIGDINPNNGETFYNQKFKDKATLTVDKSSSTAYMQLNSLTSEDSAVYYCATRVFDYWGQGTTLTVSS VL: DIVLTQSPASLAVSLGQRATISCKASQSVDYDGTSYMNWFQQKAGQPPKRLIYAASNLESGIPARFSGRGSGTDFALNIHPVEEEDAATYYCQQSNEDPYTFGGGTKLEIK")
0.0014
